Source of measurements: patent US20250195521A1

# Measured On: KRAS WT (Homo sapiens (Human), UniProt P01116+P62937)
# Sequence (P01116 other isoform, or with tags, fused parts or gaps): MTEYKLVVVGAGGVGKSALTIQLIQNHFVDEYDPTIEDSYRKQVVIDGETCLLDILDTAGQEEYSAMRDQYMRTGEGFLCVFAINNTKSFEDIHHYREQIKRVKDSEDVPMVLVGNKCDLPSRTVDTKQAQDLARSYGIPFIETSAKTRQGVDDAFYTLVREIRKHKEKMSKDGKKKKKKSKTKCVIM
# Sequence (P62937 whole entry): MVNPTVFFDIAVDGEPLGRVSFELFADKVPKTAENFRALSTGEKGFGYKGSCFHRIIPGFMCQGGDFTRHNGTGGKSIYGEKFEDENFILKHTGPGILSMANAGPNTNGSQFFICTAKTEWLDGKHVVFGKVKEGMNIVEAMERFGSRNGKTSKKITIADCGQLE
# Experiment Notes: Ras-Raf disruption/FRET/MOA assay, KRAS WT
# Type: biochemical

Compound Structure: CCn1c(-c2cnccc2COC)c2c3cc(ccc31)-c1cc(O)cc(c1)C[C@H](NC(=O)[C@H](C(C)C)N(C)C(=O)CN(C)C(=O)[C@@H]1N[C@H]1c1ccccc1)C(=O)N1CCC[C@H](N1)C(=O)OCC(C)(C)C2
IC50: 100 to 1000 nM

Compound Structure: CCn1c(-c2cccnc2[C@H](C)OC)c2c3cc(ccc31)-c1cc(O)cc(c1)C[C@H](NC(=O)[C@@H](C(C)C)N(C)C(=O)[C@@]1(C)CCCN1C(=O)[C@@H]1CN1)C(=O)N1CCC[C@H](N1)C(=O)OCC(C)(C)C2
IC50: 100 to 1000 nM

Compound Structure: CCn1c(-c2cnccc2COC)c2c3cc(ccc31)-c1cc(O)cc(c1)C[C@H](NC(=O)[C@H](C(C)C)N(C)C(=O)CN(C)C(=O)[C@@H]1N[C@H]1c1ccc(OC)cc1)C(=O)N1CCC[C@H](N1)C(=O)OCC(C)(C)C2
IC50: 10 to 100 nM

Compound Structure: CCn1c(-c2cccnc2[C@H](C)OC)c2c3cc(ccc31)-c1cc(O)cc(c1)C[C@H](NC(=O)[C@H](C(C)C)N(C)C(=O)[C@@H]1CO[C@H](C)CN1C(=O)[C@H]1CN1)C(=O)N1CCC[C@H](N1)C(=O)OCC(C)(C)C2
IC50: 10 to 100 nM
